# test_name: self-splicing fitness, log relative to wild type (ln ratio); higher = more splicing; Tetrahymena group I intron in knt gene, E. coli kanamycin selection, DiMSum; sequences stand for … in CUCUCU…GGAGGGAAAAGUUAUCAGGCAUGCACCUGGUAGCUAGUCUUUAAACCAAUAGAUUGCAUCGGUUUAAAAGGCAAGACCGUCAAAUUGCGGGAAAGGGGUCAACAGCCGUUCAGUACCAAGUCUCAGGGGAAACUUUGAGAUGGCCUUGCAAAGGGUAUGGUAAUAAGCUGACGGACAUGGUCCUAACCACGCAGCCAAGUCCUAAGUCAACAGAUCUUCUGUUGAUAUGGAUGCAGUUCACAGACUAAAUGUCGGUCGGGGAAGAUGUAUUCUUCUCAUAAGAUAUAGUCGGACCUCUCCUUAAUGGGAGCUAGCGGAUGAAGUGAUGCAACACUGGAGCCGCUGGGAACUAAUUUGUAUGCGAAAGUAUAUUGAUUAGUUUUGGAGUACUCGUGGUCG;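 also: selection with 25 µg/mL kanamycin versus none on LB agar overnight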
# particulars: 37 °C
property_label: self-splicing fitness (ln)
One number for each entry.

AGCAAGCAAUAUUACGGGUA = -0.594

List the reported self-splicing fitness (ln) of each sequence below.
1. GUUCAGCAAUAUUACGCUUC
2. UCAAAGCAAUAUUACGCUCG
3. UACUAGCAAUAUUACGAAGA
4. AGCGAGCAAUAUUACGGAUU
5. AAAAAGCAAUAUUACGCUAA

1. -0.661
2. -0.0673
3. -1.86
4. -1.96
5. -1.35

For each entry beneath this line, provide reported self-splicing fitness (ln).
1. CGAGAGCAAUAUUACGAAUG
2. UGCCAGCAAUAUUACGGCUU

1: -2.03; 2: -0.247

Hi there! I need self-splicing fitness (ln) for each item below, if you can.
1. AAAGAGCAAUAUUACGGUUG
2. UCACAGCAAUAUUACGACGC
3. UGGAAGCAAUAUUACGGCCC
4. AACUAGCAAUAUUACGUUAC
5. GGCAAGCAAUAUUACGAUGA
6. GCGGAGCAAUAUUACGUAGG

-2.14
-1.03
0.256
-1.96
-0.765
-0.489

Please go through the list and note self-splicing fitness (ln) for each sequence.
1. UCCAAGCAAUAUUACGGAAA
2. CAGGAGCAAUAUUACGGCGA

1. -1.51
2. -3.49
